FYI, the data here is from ChEMBL document CHEMBL4024774.

- Species on record: Homo sapiens
- assay summary: Selectivity ratio of Ki for human DAT […] mutant expressed in African green monkey COS7 cells to Ki for wild type human DAT expressed in African green monkey COS7 cells
- Type: cell-based
property name: Ratio Ki
Answer with a number only.

Sample records with Ratio Ki:
>  <molecule>
CN1C2CCC1[C@@H](c1cc(-c3ccccc3)no1)[C@@H](OC(c1ccc(F)cc1)c1ccc(F)cc1)C2 (mixture of isomers)

>  <Ratio Ki>
2.4

$$$$
>  <molecule>
CC(C)[C@@H](N)CN1C2CCC1CC(OC(c1ccc(F)cc1)c1ccc(F)cc1)C2 (stereo not given in full)

>  <Ratio Ki>
3.8

$$$$
>  <molecule>
CCOC(=O)[C@@H]1C2CCC(C[C@@H]1OC(c1ccc(F)cc1)c1ccc(F)cc1)N2C[C@H](N)C(C)C (mixture of isomers)

>  <Ratio Ki>
7.1

$$$$
>  <molecule>
CCCCN1C2CCC1CC(NC(c1ccc(F)cc1)c1ccc(F)cc1)C2 (stereo not given)

>  <Ratio Ki>
15

$$$$

Consider the molecule CN(C)CCN1C2CCC1CC(NC(c1ccc(F)cc1)c1ccc(F)cc1)C2 (stereo not given) and give its measured Ratio Ki. 20

Given the molecule Cc1ccc(C2CC3CCC(C2c2cc(-c4ccc(Cl)cc4)no2)N3C)cc1 (stereo not given) , what is its reported Ratio Ki? 9

Would you kindly share the measured Ratio Ki for CN1C2CCC1[C@@H](c1cc(-c3ccccc3)no1)C(OC(c1ccc(F)cc1)c1ccc(F)cc1)C2 (single isomer, unassigned) ? 6.5

Given Fc1ccc(C(OC2CC3CCC(C2)N3CCc2c[nH]c3ccccc23)c2ccc(F)cc2)cc1 (stereo not given) , state its recorded Ratio Ki. 6.7

I have this molecule here, Cc1ccc(-c2cc(C3C(c4ccc(Cl)cc4)CC4CCC3N4C)on2)cc1 (stereo not given) , and I need its recorded Ratio Ki. 4

Find the recorded Ratio Ki belonging to CN(C)CCN1C2CCC1CC(OC(c1ccc(F)cc1)c1ccc(F)cc1)C2 (stereo not given) and report it. 6.3

* * *

Measured pKi of individual entries
- tested on: Sodium-dependent dopamine transporter (Homo sapiens, UniProt Q01959)
- Sequence (Q01959 whole entry): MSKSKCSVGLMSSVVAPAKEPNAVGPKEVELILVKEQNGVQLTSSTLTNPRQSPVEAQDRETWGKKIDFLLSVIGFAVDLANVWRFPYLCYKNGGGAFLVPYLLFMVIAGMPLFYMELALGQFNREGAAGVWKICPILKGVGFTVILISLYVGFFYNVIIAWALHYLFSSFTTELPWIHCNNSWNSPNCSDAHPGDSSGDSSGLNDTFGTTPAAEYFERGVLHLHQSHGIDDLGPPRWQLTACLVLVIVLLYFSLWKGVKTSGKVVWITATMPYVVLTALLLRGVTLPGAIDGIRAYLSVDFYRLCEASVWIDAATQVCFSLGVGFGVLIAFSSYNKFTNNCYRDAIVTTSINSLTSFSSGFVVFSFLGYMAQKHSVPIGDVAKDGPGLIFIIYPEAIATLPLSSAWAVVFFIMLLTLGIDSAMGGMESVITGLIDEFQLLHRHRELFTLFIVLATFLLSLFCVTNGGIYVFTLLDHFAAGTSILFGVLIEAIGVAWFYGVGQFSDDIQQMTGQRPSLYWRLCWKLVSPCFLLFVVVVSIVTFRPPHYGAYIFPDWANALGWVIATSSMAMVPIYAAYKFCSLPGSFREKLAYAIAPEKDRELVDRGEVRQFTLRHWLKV
- assay summary: Inhibition of […] uptake at wild type human DAT expressed in African green monkey COS7 cells after 90 mins
- Assay type: cell-based
// returns pKi (minus log10 of molar concentration), number only

Record excerpt, results attached:
>  <compound>
Cc1ccc(C2CC3CCC(C2c2cc(-c4ccc(Cl)cc4)no2)N3C)cc1 (stereo unspecified)

>  <pKi>
7.57

$$$$
>  <compound>
CN(C)CCN1C2CCC1CC(OC(c1ccc(F)cc1)c1ccc(F)cc1)C2 (stereo unspecified)

>  <pKi>
8.00

$$$$
>  <compound>
CN1C2CCC1[C@@H](c1cc(-c3ccccc3)no1)C(OC(c1ccc(F)cc1)c1ccc(F)cc1)C2 (single isomer, unassigned)

>  <pKi>
7.55

$$$$
>  <compound>
CN1C2CCC1[C@@H](c1cc(-c3ccccc3)no1)[C@@H](OC(c1ccc(F)cc1)c1ccc(F)cc1)C2 (mixture of isomers)

>  <pKi>
5.83

$$$$
>  <compound>
CCCCN1C2CCC1CC(NC(c1ccc(F)cc1)c1ccc(F)cc1)C2 (stereo unspecified)

>  <pKi>
7.62

$$$$
>  <compound>
CC(C)[C@@H](N)CN1C2CCC1CC(OC(c1ccc(F)cc1)c1ccc(F)cc1)C2 (stereo partly specified)

>  <pKi>
7.09

$$$$

Requested read-out: pKi. Entry: CN(C)CCN1C2CCC1CC(NC(c1ccc(F)cc1)c1ccc(F)cc1)C2 (stereo unspecified) 7.80

Param item = Cc1ccc(-c2cc(C3C(c4ccc(Cl)cc4)CC4CCC3N4C)on2)cc1 (stereo unspecified) ; retrieve measured pKi. 7.46
